experiment: Pharmacokinetic parameter Cl(clearance) studied in rat; format: ADME, organism-based; conditions: in vivo
property: clearance (mL/min/kg)

[[record]]
smilesstr = "CC(C)(C)NC(=O)C1(C2CCCCC2)CCN(C(=O)[C@@H](Cc2ccc(Cl)cc2)NC(=O)[C@H]2CCc3ccccc3[C@H]2N)CC1"
numericresult = 35


====

Listed here are molecules together with their documented IC50.
target: Melanocortin receptor 3 (Homo sapiens, UniProt P41968); assay: Concentration required for 50% inhibition by displacement of [125I]NDP-alpha-MSH of human MC3R expressed in CHO cells; assay type: cell-based
Sequence (P41968 whole entry): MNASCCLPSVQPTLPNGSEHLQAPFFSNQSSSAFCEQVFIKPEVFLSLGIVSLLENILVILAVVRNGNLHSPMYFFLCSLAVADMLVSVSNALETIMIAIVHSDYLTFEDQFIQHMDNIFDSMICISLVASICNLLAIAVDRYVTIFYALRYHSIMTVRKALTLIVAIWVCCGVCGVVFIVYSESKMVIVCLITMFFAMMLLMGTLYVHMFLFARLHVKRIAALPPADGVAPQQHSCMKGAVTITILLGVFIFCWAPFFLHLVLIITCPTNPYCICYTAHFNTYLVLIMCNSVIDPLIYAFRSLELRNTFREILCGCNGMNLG
property: IC50

[[record]]
molecule = "CC(C)(C)NC(=O)C1(C2CCCCC2)CCN(C(=O)[C@@H](Cc2ccc(Cl)cc2)NC(=O)C2CCCc3ccccc3C2N)CC1 (stereo not given in full)"
property = "IC50"
result = "97 nM"

[[record]]
molecule = "CC(C)(C)NC(=O)C1(C2CCCCC2)CCN(C(=O)[C@@H](Cc2ccc(Cl)cc2)NC(=O)[C@@H]2CCc3ccccc3[C@@H]2N)CC1"
property = "IC50"
result = "32 nM"

[[record]]
molecule = "CC(C)(C)NC(=O)C1(C2CCCCC2)CCN(C(=O)[C@@H](Cc2ccc(Cl)cc2)NC(=O)C2Cc3ccccc3C2N)CC1 (stereo not given in full)"
property = "IC50"
result = "83 nM"

[[record]]
molecule = "CC(C)(C)NC(=O)C1(C2CCCCC2)CCN(C(=O)[C@@H](Cc2ccc(Cl)cc2)NC(=O)[C@H]2CCc3ccccc3[C@H]2N)CC1"
property = "IC50"
result = "120 nM"

[[record]]
molecule = "CC(C)(C)NC(=O)C1(C2CCCCC2)CCN(C(=O)[C@@H](Cc2ccc(Cl)cc2)NC(=O)[C@H]2CCc3ccccc3[C@@]2(C)N)CC1"
property = "IC50"
result = "170 nM"

